target_of_assay: UniProt P33032
Sequence (P33032 whole entry): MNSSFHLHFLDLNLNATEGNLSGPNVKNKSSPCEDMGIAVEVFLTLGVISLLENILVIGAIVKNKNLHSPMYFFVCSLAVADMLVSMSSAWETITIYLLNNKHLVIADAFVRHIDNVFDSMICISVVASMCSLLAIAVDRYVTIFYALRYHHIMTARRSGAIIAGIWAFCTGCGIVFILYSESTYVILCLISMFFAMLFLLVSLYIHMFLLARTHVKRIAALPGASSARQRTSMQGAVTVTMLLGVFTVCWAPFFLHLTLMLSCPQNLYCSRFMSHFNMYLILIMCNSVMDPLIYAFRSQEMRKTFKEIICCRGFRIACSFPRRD
assay_info: Competitive binding with 125I-NDP-MSH, HEK293 membrane preparations, MC5R
experimental_setup: Ki MC5R, competition with 125I-NDP-MSH; cells noted in μM
Recorded Ki for the following molecules

The examples below pair each entry with its known result.
CSCC[C@@H](NC(=O)[C@@H](CCC(=O)O)NC(=O)[C@@H](Cc1c[nH]cn1)NC(=O)[C@H](Cc1ccccc1)NC(=O)[C@@H](CCCNC(=N)N)NC(=O)[C@@H](Cc1c[nH]c2ccccc12)NC(=O)CNC(=O)[C@@H](CCCCN)NC(=O)[C@H]1CCCN1C(=O)[C@H](NC(C)=O)C(C)C)C(=O)N[C@H](CO)C(=O)N[C@H](Cc1ccc(O)cc1)C(=O)N[C@H](CO)C(N)=O    > 30 µM
CSCC[C@@H](NC(=O)[C@@H](CCC(=O)O)NC(=O)[C@@H](Cc1c[nH]cn1)NC(=O)[C@@H](Cc1ccccc1)NC(=O)[C@@H](CCCNC(=N)N)NC(=O)[C@@H](Cc1c[nH]c2ccccc12)NC(=O)CNC(=O)[C@@H](CCCCN)NC(=O)[C@H]1CCCN1C(=O)[C@H](NC(C)=O)C(C)C)C(=O)N[C@H](CO)C(=O)N[C@H](Cc1ccc(O)cc1)C(=O)N[C@H](CO)C(N)=O    ~25 µM

Input line: Dear colleague, please send me the reported Ki for `CSCC[C@@H](NC(=O)[C@@H](CCC(=O)O)NC(=O)[C@H](Cc1c[nH]cn1)NC(=O)[C@@H](Cc1ccccc1)NC(=O)[C@@H](CCCNC(=N)N)NC(=O)[C@@H](Cc1c[nH]c2ccccc12)NC(=O)CNC(=O)[C@@H](CCCCN)NC(=O)[C@H]1CCCN1C(=O)[C@H](NC(C)=O)C(C)C)C(=O)N[C@H](CO)C(=O)N[C@H](Cc1ccc(O)cc1)C(=O)N[C@H](CO)C(N)=O` when you can.
Output line: ~37 µM

The origin of these recorded values is patent US10385108B2.
